- assay.explanation: GFP drop in mixed WT/humanized-ribosome E. coli culture – GFP/RFP fluorescence, OD600, single point, bacterial rRNA inhibitor project, primary screen (AID 720706)
- condition.details: E. coli WT GFP vs humanized-ribosome RFP mutants, 24 h, DMSO median 0, no signal -100
The campaign covered roughly 350,000 compounds. About 5,500 (1.6%) were called active.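 How the source made its calls: active means significant combined selectivity score with lowered wild-type GFP, culture density cut under 30%, mutant RFP and density less affected; inactive means any of these conditions unmet.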 Only a selection was taken, and actives are over-represented in it overall.
Pick one: 1 (active), 0 (inactive)

In: Would you mind telling me which call this test gave C[C@@H]1CN([C@H](C)CO)C(=O)c2c(c3ccccc3n2C)-c2ccccc2CO[C@@H]1CN(C)Cc1ccccc1C(F)(F)F ?
Out: 0

In: Now the molecule COCC#Cc1cnc2c(c1)C(=O)N([C@H](C)CO)C[C@@H](C)[C@@H](CN(C)Cc1ccccc1F)O2
Out: 0

In: Now the molecule C[C@@H]1CN(C)C(=O)c2cc([N+](=O)[O-])ccc2O[C@@H]1CN(C)C(=O)OC(C)(C)C
Out: 0

In: Now the molecule Cc1cc(SCc2c(F)cccc2Cl)nc(=O)[nH]1
Out: 0

In: Now the molecule CC(C)NC(=O)N(C)C[C@H]1Oc2ccc(N)cc2CC(=O)N(C)C[C@H]1C
Out: 0

In: Now the molecule O=C(CSc1nn(-c2ccc(F)cc2)c(=S)s1)NC1CCS(=O)(=O)C1 (centres undefined)
Out: 0

In: Now the molecule CN1CCN(C(=O)c2ccc(-c3ccc(Br)cc3)o2)CC1
Out: 0

In: Now the molecule CCCC#Cc1ccc([C@H]2[C@@H](CO)N3CCCCN(S(=O)(=O)Cc4ccccc4)C[C@H]23)cc1
Out: 0

In: Now the molecule CN(c1cccc(NC(=O)c2ccc(CN3CCc4ccccc4C3)cc2)c1)S(C)(=O)=O
Out: 1

In: Now the molecule Cc1cccc(CNS(=O)(=O)c2ccc(-c3cnc(C4CC4)o3)cc2)c1
Out: 1

In: Now the molecule Fc1cccc(Cl)c1CSc1ccc(-c2ccco2)nn1
Out: 1

In: Now the molecule O=C(Nc1cccc(Cl)c1)N1C[C@@H]2[C@H](c3ccccc31)[C@H](CO)N2Cc1ccncc1
Out: 1

In: Now the molecule O=C(C[n+]1cc(-c2ccc(Cl)c(Cl)c2)n2c1CCC2)c1cccs1
Out: 1

In: Now the molecule CCCN(C)C[C@H]1OCCCC[C@@H](C)Oc2ccc(NC(=O)Nc3ccc(F)cc3)cc2C(=O)N([C@@H](C)CO)C[C@H]1C
Out: 0

In: Now the molecule Cn1nc(-c2ccc(Cl)cc2)c2cc(C(=O)NCc3ccco3)sc21
Out: 0

In: Now the molecule Cc1cc(C)n2nc(SCC(=O)NC(=O)NCc3ccco3)nc2n1
Out: 0

In: Now the molecule CCc1cc2cc(OC)ccc2nc1SCC(=O)Nc1cc(OC)c(OC)cc1C(=O)O
Out: 1

In: Now the molecule CC1CCN(C(=S)c2ccc(-c3ccc(Cl)cc3Cl)o2)CC1
Out: 0

In: Now the molecule Cc1ccc(C(=O)C[n+]2cc(-c3ccccc3)n3c2CCCCC3)cc1
Out: 0

In: Now the molecule Cc1cccc(NS(=O)(=O)c2ccc(-c3cnc(C4CC4)o3)cc2)c1
Out: 0

In: Now the molecule CC(C)NC(=O)N1CCCCN2[C@@H](CO)[C@@H](c3ccc(C#C[C@@H](C)O)cc3)[C@@H]2C1
Out: 0

In: Now the molecule CCOc1cc(NS(=O)(=O)c2ccc(OC)cc2)c(OCC)cc1NC(C)=O
Out: 0

In: Now the molecule O=C(Nc1ccccc1)N1C[C@H]2[C@@H](c3ccccc31)[C@H](CO)N2Cc1ccc(F)cc1
Out: 0

In: Now the molecule CCOc1ccc(NS(=O)(=O)c2ccc(C)c(C(N)=O)c2)cc1
Out: 0

In: Now the molecule COc1cccc(NC(=O)Nc2ccc3c(c2)OC[C@@H](C)NC[C@@H](C)[C@H](OC)CN(C)C3=O)c1
Out: 0

In: Now the molecule C[C@@H]1CN([C@H](C)CO)C(=O)c2cc(NS(=O)(=O)c3ccccc3)ccc2O[C@H]1CN(C)S(=O)(=O)c1ccc(Cl)cc1
Out: 0

In: Now the molecule CCOc1ccc2sc(NS(=O)(=O)c3ccc(N)cc3)nc2c1
Out: 1

In: Now the molecule COCCNC(=O)/C(C#N)=C/c1nc(N(C)C)n(-c2ccc(F)cc2)c1Cl
Out: 0

In: Now the molecule O=S(=O)(NCC[C@H]1CC[C@@H](NS(=O)(=O)c2ccccc2Cl)[C@@H](CO)O1)c1ccc(Cl)cc1
Out: 0
